Target: FGFR2 (Homo sapiens)
Construct: purchased DiscoveRx Corporation
Sequence (P21802 22-821): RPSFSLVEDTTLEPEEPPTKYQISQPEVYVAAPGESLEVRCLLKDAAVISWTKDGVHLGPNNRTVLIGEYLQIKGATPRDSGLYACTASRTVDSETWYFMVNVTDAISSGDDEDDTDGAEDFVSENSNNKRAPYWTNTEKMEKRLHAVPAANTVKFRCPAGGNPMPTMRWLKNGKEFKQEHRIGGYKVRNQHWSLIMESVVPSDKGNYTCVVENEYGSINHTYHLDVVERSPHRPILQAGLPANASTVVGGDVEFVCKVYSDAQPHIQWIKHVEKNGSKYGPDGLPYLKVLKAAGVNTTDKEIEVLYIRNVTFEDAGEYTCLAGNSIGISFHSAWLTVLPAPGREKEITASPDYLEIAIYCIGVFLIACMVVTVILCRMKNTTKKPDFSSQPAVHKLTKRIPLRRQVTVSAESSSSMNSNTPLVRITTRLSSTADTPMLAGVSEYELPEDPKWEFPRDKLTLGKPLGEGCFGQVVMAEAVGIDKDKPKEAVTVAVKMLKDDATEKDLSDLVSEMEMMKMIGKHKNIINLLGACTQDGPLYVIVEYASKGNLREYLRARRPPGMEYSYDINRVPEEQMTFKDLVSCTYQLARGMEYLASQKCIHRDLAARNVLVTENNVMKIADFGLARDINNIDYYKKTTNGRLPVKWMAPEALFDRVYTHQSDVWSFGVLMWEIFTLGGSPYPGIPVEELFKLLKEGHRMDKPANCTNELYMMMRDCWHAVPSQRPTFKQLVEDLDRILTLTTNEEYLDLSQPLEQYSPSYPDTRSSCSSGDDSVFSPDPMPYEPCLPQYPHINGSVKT
Assay: Enzyme binding assay (KINOMEscan) FGFR2
Details: pKd = -log Kd (M), read-out: FGFR2_pKd (converted)
Experimental: Enzyme Binding Assays (KINOMEscan®) Kinase enzyme binding affinities of compounds disclosed herein were determined using the KINOMEscan® technology performed by DiscoveRx Corporation, San Diego, Calif., USA (www.kinomescan.com).
MEASURED_ATTRIBUTE: Kd (M)

compound="COc1cc(OC)cc(N(CCO)c2ccc3ncn(C4CCOCC4)c(=O)c3c2)c1 [Compound 64]" scale_unit=M assay_value=3.98e-07
compound="COc1cc(OC)c(F)c(N(CCCO)c2ccc3ncn(C4CCOCC4)c(=O)c3c2)c1 [Compound 65]" scale_unit=M assay_value=5.01e-08
compound="COc1cc(OC)c(F)c(N(CCO)c2ccc3ncn(-c4cccnc4)c(=O)c3c2)c1 [Compound 30]" scale_unit=M assay_value=3.98e-08

###

target: FGFR2 (Homo sapiens); construct: purchased DiscoveRx Corporation; test: Enzyme binding assay (KINOMEscan) FGFR2; conditions: pKd = -log Kd (M), read-out: FGFR2_pKd (converted)
Entries and their Kd values follow.
MEASURED_ATTRIBUTE: Kd (M)

compound="COc1cc(OC)cc(N(CCNC(C)C)c2ccc3ncn(-c4cccnc4)c(=O)c3c2)c1 [Compound 34]" scale_unit=M assay_value=5.01e-08
compound="COc1cc(OC)c(F)c(N(CCCO)c2ccc3ncn(C4CCNCC4)c(=O)c3c2)c1 [Compound 54]" scale_unit=M assay_value=3.16e-07
compound="COc1cc(OC)c(F)c(N(Cc2ncc[nH]2)c2ccc3ncn(C4CCNCC4)c(=O)c3c2)c1F [Compound 43]" scale_unit=M assay_value=7.94e-09
compound="COc1cc(OC)c(F)c(N(CCO)c2ccc3ncn(C4CCNCC4)c(=O)c3c2)c1 [Compound 48]" scale_unit=M assay_value=6.31e-07
compound="COc1cc(OC)c(F)c(N(Cc2ncc[nH]2)c2ccc3ncn(C4CCOCC4)c(=O)c3c2)c1 [Compound 75]" scale_unit=M assay_value=1e-08

###

Entries and their BAF3-FGFR4 (pIC50) values follow.
biological target: Ba/F3-FGFR4-transfected cells (Homo sapiens, UniProt P22455, cells depend on it, form not given); assay: Ba/F3-FGFR4 cellular proliferation assay; format: cell-based; settings: 24 hours, Alamar Blue
Sequence (P22455 whole entry, looked up, change not shown): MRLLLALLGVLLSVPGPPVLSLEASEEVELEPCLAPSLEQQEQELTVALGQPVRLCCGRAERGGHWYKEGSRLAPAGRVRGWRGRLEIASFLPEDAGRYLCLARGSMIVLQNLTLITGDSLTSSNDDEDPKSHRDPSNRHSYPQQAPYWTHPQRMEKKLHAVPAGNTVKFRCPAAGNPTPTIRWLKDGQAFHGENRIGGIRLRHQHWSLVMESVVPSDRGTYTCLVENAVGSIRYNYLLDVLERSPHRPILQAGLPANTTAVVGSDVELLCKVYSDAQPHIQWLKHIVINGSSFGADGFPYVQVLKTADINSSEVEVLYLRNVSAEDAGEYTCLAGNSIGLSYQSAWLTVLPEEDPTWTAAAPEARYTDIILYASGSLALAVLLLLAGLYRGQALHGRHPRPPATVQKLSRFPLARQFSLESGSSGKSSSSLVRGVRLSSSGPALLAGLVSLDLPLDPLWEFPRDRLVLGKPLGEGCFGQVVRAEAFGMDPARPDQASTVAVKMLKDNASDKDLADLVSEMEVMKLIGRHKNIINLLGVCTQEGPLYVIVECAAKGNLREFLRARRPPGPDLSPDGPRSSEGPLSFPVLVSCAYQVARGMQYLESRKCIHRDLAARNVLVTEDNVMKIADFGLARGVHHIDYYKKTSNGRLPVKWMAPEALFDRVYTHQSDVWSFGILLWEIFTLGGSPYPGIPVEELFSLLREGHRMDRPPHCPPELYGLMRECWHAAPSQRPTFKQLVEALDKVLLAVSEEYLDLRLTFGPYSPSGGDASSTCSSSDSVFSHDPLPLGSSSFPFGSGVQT
MEASURED_ATTRIBUTE: BAF3-FGFR4 (pIC50)

mol_smiles=COc1cc(OC)cc(C(=O)c2ccc3ncn(-c4cnn(C)c4)c(=O)c3c2)c1 measured_attribute="BAF3-FGFR4 (pIC50)" censoring_qualifier=< assay_value=5
mol_smiles=COc1cccc(C(=O)c2ccc3ncn(-c4cnn(C)c4)c(=O)c3c2)c1 measured_attribute="BAF3-FGFR4 (pIC50)" censoring_qualifier=< assay_value=5
mol_smiles=CNCCN(c1ccc2ncn(-c3cnn(C)c3)c(=O)c2c1)c1c(F)c(OC)cc(OC)c1F measured_attribute="BAF3-FGFR4 (pIC50)" censoring_qualifier== assay_value=6.7
mol_smiles=COc1cc(OC)cc(N(CCO)c2ccc3ncn(-c4cnn(C)c4)c(=O)c3c2)c1 measured_attribute="BAF3-FGFR4 (pIC50)" censoring_qualifier== assay_value=5.2
mol_smiles=COc1cc(OC)c(Cl)c(N(CCO)c2ccc3ncn(-c4cnn(C)c4)c(=O)c3c2)c1Cl measured_attribute="BAF3-FGFR4 (pIC50)" censoring_qualifier== assay_value=5.1
mol_smiles=COc1cc(OC)c(F)c(N(CCNC(C)C)c2ccc3ncn(-c4cnn(C)c4)c(=O)c3c2)c1F measured_attribute="BAF3-FGFR4 (pIC50)" censoring_qualifier== assay_value=8.2
